Target: Mitogen-activated protein kinase kinase kinase 7 (Homo sapiens)
Sequence (O43318 whole entry): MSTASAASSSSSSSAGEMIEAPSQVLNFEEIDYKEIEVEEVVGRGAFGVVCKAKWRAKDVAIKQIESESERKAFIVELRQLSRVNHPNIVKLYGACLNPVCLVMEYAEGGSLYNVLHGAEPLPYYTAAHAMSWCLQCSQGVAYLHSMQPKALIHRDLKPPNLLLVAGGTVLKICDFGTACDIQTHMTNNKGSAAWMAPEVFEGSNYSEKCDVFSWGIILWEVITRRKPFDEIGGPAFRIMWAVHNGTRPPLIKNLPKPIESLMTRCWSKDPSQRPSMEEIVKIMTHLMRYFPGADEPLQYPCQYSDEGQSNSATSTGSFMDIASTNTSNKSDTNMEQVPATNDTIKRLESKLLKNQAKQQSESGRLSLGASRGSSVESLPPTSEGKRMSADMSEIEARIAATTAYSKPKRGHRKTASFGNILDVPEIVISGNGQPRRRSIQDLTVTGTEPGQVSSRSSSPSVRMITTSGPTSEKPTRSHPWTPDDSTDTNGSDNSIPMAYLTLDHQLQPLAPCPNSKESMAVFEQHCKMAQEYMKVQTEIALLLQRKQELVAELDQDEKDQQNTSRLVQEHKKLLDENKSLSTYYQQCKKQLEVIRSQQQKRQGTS
Experiment: Inhibition of TAK1 (unknown origin)
pIC50: −log10 of the molar value.
recorded-endpoint: pIC50

In: Param readout= pIC50; system= Mitogen-activated protein kinase kinase kinase 7 (Homo sapiens); entry= O=C(Nc1nc2cccc(-c3ccc(CN4CCS(=O)(=O)CC4)cc3)n2n1)C1CC1 [FILGOTINIB] ; returns value.
Out: < 5.00

---

target: UniProt P07333
Sequence (P07333 whole entry): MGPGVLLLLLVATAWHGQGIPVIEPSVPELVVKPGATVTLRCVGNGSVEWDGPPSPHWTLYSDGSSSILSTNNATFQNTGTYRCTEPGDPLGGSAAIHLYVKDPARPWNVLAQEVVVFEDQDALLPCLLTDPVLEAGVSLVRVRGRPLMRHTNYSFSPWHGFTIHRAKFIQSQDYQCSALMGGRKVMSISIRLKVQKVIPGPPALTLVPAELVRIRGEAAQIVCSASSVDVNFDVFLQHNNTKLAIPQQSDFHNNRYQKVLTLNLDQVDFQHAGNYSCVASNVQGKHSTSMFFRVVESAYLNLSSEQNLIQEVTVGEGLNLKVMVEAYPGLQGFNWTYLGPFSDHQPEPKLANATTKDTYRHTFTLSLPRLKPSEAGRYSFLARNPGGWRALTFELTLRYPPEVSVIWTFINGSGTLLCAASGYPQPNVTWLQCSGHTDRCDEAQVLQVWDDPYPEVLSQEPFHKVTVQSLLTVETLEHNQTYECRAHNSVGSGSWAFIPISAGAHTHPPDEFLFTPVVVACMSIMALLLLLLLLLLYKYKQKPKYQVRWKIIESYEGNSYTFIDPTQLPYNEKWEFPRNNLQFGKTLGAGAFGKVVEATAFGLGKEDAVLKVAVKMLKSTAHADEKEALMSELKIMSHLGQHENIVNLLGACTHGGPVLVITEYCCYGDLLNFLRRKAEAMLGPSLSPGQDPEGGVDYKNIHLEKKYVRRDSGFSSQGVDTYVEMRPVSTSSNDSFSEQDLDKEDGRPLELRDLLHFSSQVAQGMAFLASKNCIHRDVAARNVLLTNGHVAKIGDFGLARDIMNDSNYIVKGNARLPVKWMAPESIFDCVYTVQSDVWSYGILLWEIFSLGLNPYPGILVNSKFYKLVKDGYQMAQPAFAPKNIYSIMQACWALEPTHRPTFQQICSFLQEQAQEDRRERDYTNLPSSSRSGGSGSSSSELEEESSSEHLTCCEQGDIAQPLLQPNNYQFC
recorded-endpoint: IC50 (nM)
Write it as a number; the unit nM goes unstated.

In: # lookup: IC50 of O=C(Nc1nc2cccc(-c3ccc(CN4CCS(=O)(=O)CC4)cc3)n2n1)C1CC1
Out: 489

---

assay: AUC (0 to 24 hrs) in CD-1 mouse at 5 mg/kg, po measured upto 24 hrs by LC-MS analysis; format: ADME, organism-based; conditions: in vivo
recorded-endpoint: AUC (ng·h/mL)
Write it as a number; the unit ng·h/mL goes unstated.

In: # lookup: AUC of O=C(Nc1nc2cccc(-c3ccc(CN4CCS(=O)(=O)CC4)cc3)n2n1)C1CC1
Out: 1890

---

target: Mitogen-activated protein kinase 12 (Homo sapiens); assay: Inhibition of MAPK12 (unknown origin)
Sequence (P53778 whole entry): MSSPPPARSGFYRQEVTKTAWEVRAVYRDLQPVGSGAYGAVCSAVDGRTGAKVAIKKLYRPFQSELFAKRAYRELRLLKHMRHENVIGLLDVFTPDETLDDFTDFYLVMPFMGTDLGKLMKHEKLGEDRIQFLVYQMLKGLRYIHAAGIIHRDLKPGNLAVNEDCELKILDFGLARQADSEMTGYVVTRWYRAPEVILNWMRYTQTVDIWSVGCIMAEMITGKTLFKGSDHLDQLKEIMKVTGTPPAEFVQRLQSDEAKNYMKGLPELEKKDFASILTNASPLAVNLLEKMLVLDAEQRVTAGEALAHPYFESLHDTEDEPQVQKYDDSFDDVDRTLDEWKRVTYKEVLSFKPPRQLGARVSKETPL
recorded-endpoint: IC50

In: # lookup: IC50 of O=C(Nc1nc2cccc(-c3ccc(CN4CCS(=O)(=O)CC4)cc3)n2n1)C1CC1
Out: > 10 µM

---

target: Receptor-type tyrosine-protein kinase FLT3 (Homo sapiens, UniProt P36888)
Sequence (P36888 whole entry): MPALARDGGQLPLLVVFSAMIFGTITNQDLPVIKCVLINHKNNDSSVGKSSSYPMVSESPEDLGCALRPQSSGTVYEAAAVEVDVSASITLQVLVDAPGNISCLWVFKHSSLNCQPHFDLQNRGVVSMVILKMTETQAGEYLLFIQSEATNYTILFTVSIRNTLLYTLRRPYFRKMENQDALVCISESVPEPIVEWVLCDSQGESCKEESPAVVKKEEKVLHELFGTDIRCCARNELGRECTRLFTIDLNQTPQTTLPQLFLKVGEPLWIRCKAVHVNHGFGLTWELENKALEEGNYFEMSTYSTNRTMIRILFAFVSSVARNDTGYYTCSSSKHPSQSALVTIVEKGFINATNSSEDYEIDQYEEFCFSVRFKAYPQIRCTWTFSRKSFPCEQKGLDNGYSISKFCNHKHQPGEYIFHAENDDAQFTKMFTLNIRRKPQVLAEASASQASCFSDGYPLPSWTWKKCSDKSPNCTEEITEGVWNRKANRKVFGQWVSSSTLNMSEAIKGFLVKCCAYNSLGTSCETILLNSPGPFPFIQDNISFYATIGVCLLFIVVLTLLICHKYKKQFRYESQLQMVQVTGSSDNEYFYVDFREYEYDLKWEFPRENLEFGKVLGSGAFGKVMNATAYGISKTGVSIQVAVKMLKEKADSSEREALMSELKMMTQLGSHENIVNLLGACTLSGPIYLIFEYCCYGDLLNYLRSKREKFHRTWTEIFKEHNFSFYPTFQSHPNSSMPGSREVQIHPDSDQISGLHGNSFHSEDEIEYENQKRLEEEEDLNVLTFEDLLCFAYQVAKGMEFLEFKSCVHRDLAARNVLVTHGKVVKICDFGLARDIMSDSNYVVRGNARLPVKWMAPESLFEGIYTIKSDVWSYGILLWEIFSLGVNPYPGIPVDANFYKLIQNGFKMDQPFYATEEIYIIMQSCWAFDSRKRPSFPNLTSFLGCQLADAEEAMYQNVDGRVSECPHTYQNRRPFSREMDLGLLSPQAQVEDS
recorded-endpoint: pIC50
The read-out pIC50 is expressed as -log10 of concentration in moles per litre.

In: # lookup: pIC50 of O=C(Nc1nc2cccc(-c3ccc(CN4CCS(=O)(=O)CC4)cc3)n2n1)C1CC1
Out: 6.47

---

experiment: Clearance in CD-1 mouse at 1 mg/kg, iv measured upto 8 hrs by LC-MS analysis; type: ADME, organism-based; conditions: in vivo
recorded-endpoint: clearance (mL/min/kg)
Write it as a number; the unit mL/min/kg goes unstated.

In: # lookup: clearance of O=C(Nc1nc2cccc(-c3ccc(CN4CCS(=O)(=O)CC4)cc3)n2n1)C1CC1 [FILGOTINIB]
Out: 48.3
